Source of measurements: patent US20190194280A1

# system name: Serum samples collected at week 16 from patients immunized with UBI AD vaccine (UB-311)
# method notes: comp. ELISA, serum P101
metric: IC50-based peak height
No unit in the answer, only the number.

Study these solved cases before continuing.
{"columns": ["binder", "metric", "readout value"],
 "data": [
  ["SGYEVHHQKL [Aβ8-17 or APP 770 (S679-L688)]", "IC50-based peak height", 0],
  ["HDSGYEVHHQ [Aβ6-15 or APP 770 (H677-Q686)]", "IC50-based peak height", 0],
  ["AEFRHDSGYE [Aβ2-11 or APP 770 (A673-E682)]", "IC50-based peak height", 2],
  ["VKMDAEFRHD [Aβ-3-7 or APP 770 (V669-D678)]", "IC50-based peak height", 31],
  ["EEISEVKMDA [Aβ-8-2 or APP 770 (E664-A673)]", "IC50-based peak height", 0]
]}

Query string: Sample EVKMDAEFRH [Aβ-4-6 or APP 770 (E668-H677)] — what was its IC50-based peak height?
Result string: 1

Query string: For ISEVKMDAEF [Aβ-6-4 or APP 770 (I666-F675)] , what is its reported IC50-based peak height?
Result string: 0

Query string: Requested read-out: IC50-based peak height. Entry: TEEISEVKMD [Aβ-9-1 or APP 770 (T663-D672)]
Result string: 0
